System: P12-Ichikawa
ASSAY COMMENT: cell viability relative to DMSO control; higher = less cytotoxic
EXPERIMENTAL SETUP: RPMI 5 mM glucose + 10% dialyzed FBS; 48 h; 0.0211 µM
Criterion: cell viability strictly less than 90%. Met: TRUE. Not met: FALSE.

| COMPOUND | ASSIGNED LABEL |
| --- | --- |
| CN(C)c1ccccc1CN1CCCN(Cc2ccccc2N(C)C)C1c1ccncc1 | TRUE |
| OCCN1CCN(CCCN2c3ccccc3Sc3ccc(C(F)(F)F)cc32)CC1 | FALSE |
| Clc1ccc(C(Cn2ccnc2)OCc2ccc(Sc3ccccc3)cc2)c(Cl)c1 (stereo not drawn) | FALSE |
| CC1(C)CCC(=C(\C1)C2=CC=C(Cl)C=C2)/CN3CCN(CC3)C4=CC(=C(C=C4)C(=O)N[S+]([O-])(=O)C5=CC=C(NCC6CCOCC6)C(=C5)[N+]([O-])=O)OC7=CN=C8[NH]C=CC8=C7 | FALSE |

Now look at this entry.
[ask] Please check: cell viability for CON(C)C(=O)N1\N=C(/S[C@]1(CCCN)C2=CC=CC=C2)C3=CC(=CC=C3F)F , strictly under 90% or not?
[reply] TRUE
